- Test system: Escherichia coli TOP10
- assayComment: shrunken log2 fold change of peptide-encoding DNA abundance (4.5 h post-induction vs induction); higher = less antimicrobial activity (less host growth inhibition)
- appliedConditions: time post-induction: 4.5 h; library: site-saturation at positions 5, 18, 19, 20
readout: shrunken log2 fold change

Solved cases below.
[[record]]
polymersequence = "RRIRSRPPRLPRPRPRPNPVPRP"
readout = "shrunken log2 fold change"
obsvalue = -0.0484

[[record]]
polymersequence = "RRIRARPPRLPRPRPRPCIFPRP"
readout = "shrunken log2 fold change"
obsvalue = 0.131

[[record]]
polymersequence = "RRIRCRPPRLPRPRPRPIEGPRP"
readout = "shrunken log2 fold change"
obsvalue = 0.119

[[record]]
polymersequence = "RRIRNRPPRLPRPRPRPRHCPRP"
readout = "shrunken log2 fold change"
obsvalue = 0.00979

[[record]]
polymersequence = "RRIRVRPPRLPRPRPRPLVIPRP"
readout = "shrunken log2 fold change"
obsvalue = -0.429


Request: shrunken log2 fold change, test system Escherichia coli TOP10, entry `RRIRNRPPRLPRPRPRPMVEPRP`
-0.481

Next up: `RRIRIRPPRLPRPRPRPQEVPRP`
0.0526

Input `RRIRYRPPRLPRPRPRPGMEPRP`
-0.0379

Entry to check: `RRIRNRPPRLPRPRPRPLREPRP`
0.128

Then what about the sequence `RRIRFRPPRLPRPRPRPAWCPRP` ?
0.205

Cool, now `RRIRPRPPRLPRPRPRPGSCPRP`
0.111

Further, for `RRIRWRPPRLPRPRPRPVNDPRP` ?
0.118

What do we get for `RRIRYRPPRLPRPRPRPVMDPRP` ?
-0.122

What do we get for `RRIRVRPPRLPRPRPRPMFNPRP` ?
-0.4

Okay, and `RRIRWRPPRLPRPRPRPQTAPRP` ?
0.282

---

- Tested on: Escherichia coli TOP10
- assayComment: shrunken log2 fold change of peptide-encoding DNA abundance (4.5 h post-induction vs induction); higher = less antimicrobial activity (less host growth inhibition)
- appliedConditions: time post-induction: 4.5 h; library: site-saturation at positions 5, 18, 19, 20
Threshold rule: shrunken log2 fold change greater than or equal to -0.5 is Y; below that, N.

[[record]]
polymersequence = "RRIRNRPPRLPRPRPRPGYSPRP"
discretelabel = "Y"

[[record]]
polymersequence = "RRIRYRPPRLPRPRPRPIIEPRP"
discretelabel = "N"

[[record]]
polymersequence = "RRIRNRPPRLPRPRPRPMGIPRP"
discretelabel = "Y"

[[record]]
polymersequence = "RRIRPRPPRLPRPRPRPGDVPRP"
discretelabel = "Y"


Given `RRIRTRPPRLPRPRPRPYNEPRP` , state whether its shrunken log2 fold change is at least -0.5.
N

Entry to check: `RRIRGRPPRLPRPRPRPQYWPRP`
Y

Then `RRIRPRPPRLPRPRPRPLAKPRP` ?
Y

What do we get for `RRIRRRPPRLPRPRPRPLIGPRP` ?
Y

---

- System: Escherichia coli TOP10;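 further: peptides expressed intracellularly from a pBAD plasmid library in pooled LB shake-flask culture, induced with 0.3% L-arabinose, DNA abundance read by NGS, three biological replicates, DESeq2 with apeglm shrinkage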
- assayComment: shrunken log2 fold change of peptide-encoding DNA abundance (4.5 h post-induction vs induction); higher = less antimicrobial activity (less host growth inhibition)
- appliedConditions: time post-induction: 4.5 h; library: site-saturation at positions 5, 18, 19, 20
Class (by shrunken log2 fold change) -- low interval (below -0.04), middle interval (-0.04 to below 0.07), high interval (0.07 or more)

These recorded examples may help you get a feel for the data.
[[record]]
polymersequence = "RRIRARPPRLPRPRPRPACTPRP"
discretelabel = "high interval"

[[record]]
polymersequence = "RRIRKRPPRLPRPRPRPCYQPRP"
discretelabel = "low interval"

[[record]]
polymersequence = "RRIRWRPPRLPRPRPRPIGSPRP"
discretelabel = "middle interval"

[[record]]
polymersequence = "RRIRNRPPRLPRPRPRPVYHPRP"
discretelabel = "middle interval"

[[record]]
polymersequence = "RRIRGRPPRLPRPRPRPVHAPRP"
discretelabel = "high interval"

[[record]]
polymersequence = "RRIRSRPPRLPRPRPRPKKQPRP"
discretelabel = "middle interval"


Exercise: read the entry `RRIRMRPPRLPRPRPRPNPVPRP` and state which class it falls under.
middle interval

// repeat for `RRIRVRPPRLPRPRPRPQIEPRP` and report
middle interval

Now try `RRIRFRPPRLPRPRPRPVVHPRP` .
low interval

Follow-up entry: `RRIRLRPPRLPRPRPRPKQDPRP`
low interval

Repeat with `RRIRHRPPRLPRPRPRPKQRPRP`
high interval
